# MEASUREMENT TARGET: LXRa:RXRa (Homo sapiens, UniProt Q13133;P19793 full;full)
# Sequence (Q13133 whole entry, chain 1 of 2): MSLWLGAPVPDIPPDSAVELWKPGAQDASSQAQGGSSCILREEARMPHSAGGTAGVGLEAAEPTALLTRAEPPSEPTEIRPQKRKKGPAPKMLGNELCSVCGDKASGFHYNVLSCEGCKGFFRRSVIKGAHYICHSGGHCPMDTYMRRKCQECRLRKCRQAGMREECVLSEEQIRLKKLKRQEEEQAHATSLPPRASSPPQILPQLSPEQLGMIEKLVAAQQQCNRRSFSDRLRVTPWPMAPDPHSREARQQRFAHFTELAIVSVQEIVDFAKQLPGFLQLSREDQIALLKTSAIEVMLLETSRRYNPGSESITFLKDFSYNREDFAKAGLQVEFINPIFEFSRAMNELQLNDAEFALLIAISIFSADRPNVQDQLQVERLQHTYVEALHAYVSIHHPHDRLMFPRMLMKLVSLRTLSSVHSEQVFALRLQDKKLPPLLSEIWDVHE
# Sequence (P19793 whole entry, chain 2 of 2): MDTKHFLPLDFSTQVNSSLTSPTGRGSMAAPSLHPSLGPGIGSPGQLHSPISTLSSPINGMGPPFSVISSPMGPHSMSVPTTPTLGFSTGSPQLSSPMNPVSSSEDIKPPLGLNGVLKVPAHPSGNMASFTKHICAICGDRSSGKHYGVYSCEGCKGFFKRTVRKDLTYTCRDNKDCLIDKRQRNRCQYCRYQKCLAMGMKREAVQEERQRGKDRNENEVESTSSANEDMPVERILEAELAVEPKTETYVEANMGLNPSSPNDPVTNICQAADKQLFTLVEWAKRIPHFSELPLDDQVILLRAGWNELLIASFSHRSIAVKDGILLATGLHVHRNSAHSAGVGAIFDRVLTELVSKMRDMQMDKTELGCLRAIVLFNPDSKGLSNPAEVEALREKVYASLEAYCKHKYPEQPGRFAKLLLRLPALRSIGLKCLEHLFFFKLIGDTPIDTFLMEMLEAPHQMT
# ASSAY NAME: no ligand; PBM; 270 nM : 90 nM RXRa; PBS pH 7.4, 2% milk, 0.02% Triton X-100, 1 mM DTT, BSA, 0.4 mg/ml salmon testes DNA
# MEASUREMENT CONTEXT: tags: His kept;His cleaved; copies: 1;1; label: surface-attached array probe
VALUE KIND: binding signal

Name the reported binding signal value associated with the binder NRC3_wobSeed103_DR4_G23C_o1 (dsDNA) DNA 1: GCGCATATAGGTAATACAAGGTCAAAGTCCGATTGTGCGATTGACAGCGTAGAATGAAGG DNA 2: CCTTCATTCTACGCTGTCAATCGCACAATCGGACTTTGACCTTGTATTACCTATATGCGC 7 PBM z-score against 500 random probes
